src = the supplement of paper PMC8498969

- Test system: HEK293
- test-summary: maximal inhibition of ZIKV NS1 production (% inhibition); higher = stronger antiviral effect
Is maximal inhibition at least 100? Then yes. If not, no.

## Input Can C#C[C@]1(OC(C)=O)CC[C@H]2[C@@H]3CCC4=C/C(=N/O)CC[C@@H]4[C@H]3CC[C@@]21CC be said to have maximal inhibition at or above 100?
## Output no

Further cases:
## Input maximal inhibition >= 100 for CCC1=C[C@@H]2CN(C1)Cc1c([nH]c3ccccc13)[C@@](C(=O)OC)(c1cc3c(cc1OC)N(C)[C@H]1[C@@](O)(C(=O)OC)[C@H](OC(C)=O)[C@]4(CC)C=CCN5CC[C@]31[C@@H]54)C2 ?
## Output no

## Input Given the entry COc1cccc2c1C(=O)c1c(O)c3c(c(O)c1C2=O)C[C@@](O)(C(=O)CO)C[C@@H]3O[C@H]1C[C@H](N)[C@@H](O)[C@H](C)O1 , answer whether its maximal inhibition meets or surpasses 100.
## Output no

## Input In plain terms: is recorded maximal inhibition at least 100 for Oc1ccc(-c2ccc(-c3cc(Nc4cccc(CNC5CC5)c4)n[nH]3)cc2)c(O)c1 ?
## Output yes

## Input Is it the case that CN1CC[C@H](c2c(O)cc(O)c3c(=O)cc(-c4ccccc4Cl)oc23)[C@H](O)C1 has maximal inhibition reaching or exceeding 100?
## Output no

## Input API: above_or_equal(metric=maximal inhibition, cutoff=100) for item CNC1CCC(N(Cc2cccc(-c3ccncc3)c2)C(=O)c2sc3ccccc3c2Cl)CC1 (stereo not given)
## Output no

## Input Please tell me: is the compound CCc1ccc(OCc2ccccc2C(=O)Nc2ccc3nc(C)cc(N)c3c2)cc1 at or over 100 in terms of maximal inhibition?
## Output yes

## Input In plain terms: is recorded maximal inhibition at least 100 for Cc1cc2c(F)c(Oc3ncnn4cc(OC[C@@H](C)O)c(C)c34)ccc2[nH]1 ?
## Output yes

## Input Confirm if maximal inhibition reported for the compound CO[C@H]1C(=O)[C@]2(C)[C@@H](OC)C[C@H]3OC[C@@]3(OC(C)=O)[C@H]2[C@H](OC(=O)c2ccccc2)[C@]2(O)C[C@H](OC(=O)[C@H](O)[C@@H](NC(=O)OC(C)(C)C)c3ccccc3)C(C)=C1C2(C)C is 100 or above.
## Output no

###

Record form. Attribute: maximal inhibition. Fill in for each entry.
- System: HEK293
- test-summary: maximal inhibition of ZIKV NS1 production (% inhibition); higher = stronger antiviral effect
Give bare numbers.

## Input What does the record list as maximal inhibition for COc1c(OCCCN2CCOCC2)ccc2c3n(c(=NC(=O)c4cnc(N)nc4)nc12)CCN3 ?
## Output 71

## Input # lookup: maximal inhibition of CC(=O)Nc1ccc([C@H](C)C(=O)Nc2ncc(C(C)C)s2)cc1
## Output 90

## Input Form field: reported maximal inhibition of C[C@@H](Oc1cc(-n2cnc3ccc(CN4CCN(C)CC4)cc32)sc1C(N)=O)c1ccccc1C(F)(F)F
## Output 98

## Input Entry under review: Nc1cc(C(F)(F)F)c(-c2cc(N3CCOCC3)nc(N3CCOCC3)n2)cn1 . Reported maximal inhibition?
## Output 74

## Input For the compound shown here, CCc1cnn2c(NCc3ccc[n+]([O-])c3)cc(N3CCCC[C@H]3CCO)nc12 , give the reported maximal inhibition.
## Output 90

## Input Which maximal inhibition is listed for CC(C)c1ccc(Cn2ccc3c4c(N)nc(NC5CC5)nc4ccc32)cc1 ?
## Output 106

# batch: return maximal inhibition for each of the 3 compounds below
1. CC[C@@]1(O)C(=O)OCc2c1cc1n(c2=O)Cc2cc3cc(O)ccc3nc2-1
2. CCC[C@H](Nc1nc(-c2ccc(NC(=O)NCC)c(OC)c2)ncc1C)c1cccnc1
3. C=CC(=O)N1CCc2ccc(-n3c(=O)ccc4cnc5ccc(-c6cnn(C)c6)cc5c43)cc21

## Output
1. 100
2. 72
3. 105
